Here the recorded reporter increase is given for each entry.
Target: Wee1-like protein kinase (Homo sapiens) (UniProt P30291)
Assay: Wee1 degradation inhibitors, primary screen, cell-based, HeLa, Wee1K328M-luciferase, luminescence (AID 1321);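 also: cells exposed to compound for 20 h before luminescence read; 0% = DMSO alone and 100% = MG132 at 30 µM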
Settings: HeLa Luc-Wee1K328M stability, at 5 µM, hits give high values, 100% = proteasome inhibitor MG132 effect
Hit rate of the full screen: of about 220,000 compounds, about 2,600 (1.2%) were called active. The sample as a whole holds a higher share of actives than the screen did.
OBSERVED_PROPERTY: reporter increase (%)

structure_string=O=c1c(/C=N/O)coc2ccc(Cl)cc12 observed_property="reporter increase" reading_unit=% value=13.3
structure_string=O=C(Nc1nc2ccccc2s1)c1ccc2c(c1)OCO2 observed_property="reporter increase" reading_unit=% value=-1.51
structure_string=O=C(Nc1ccccc1)Nc1nc2ccccc2s1 observed_property="reporter increase" reading_unit=% value=12.1
structure_string=N#CCC(=O)N/N=C/c1ccc(SCC(=O)Nc2ccccc2)o1 observed_property="reporter increase" reading_unit=% value=-0.66

Reference for the values: PubChem BioAssay AID1321
